Where do the numbers come from? From PubChem BioAssay (NCI).

System: K-562 leukemia
experimentalProtocol: NCI tumour cell line growth inhibition, 48 h
Below is a list of entries, each paired with its recorded TGI value.
# output: bare number, implied unit µM

N#CC(C#N)=C/C=C/c1c(Cl)cccc1Cl : 8.56
Oc1[nH]c(=S)[nH]c1/C=C1/C(c2ccccc2)=Nc2ccccc21 : 33.7
CN/C=C(\C(=O)c1ccc(OC)c(OC)c1)c1ccc(OC)cc1 : 27.1
O=C(c1ccc(C(F)(F)F)c(Cl)c1)N(Cc1ccc(Cl)cc1)c1ccc(-c2cc(C(F)(F)F)[nH]n2)c(O)c1 : 5.16
Clc1cc(Cl)c2cc3cccc[n+]3cc2c1Cl : 45.4
CC(=O)Nc1cccc(N2C(=O)/C(=C\c3cccc(Oc4ccccc4)c3)S(=O)(=O)C2c2ccccc2)c1 (stereo not given) : 79.2

## Input Item "C#CC(=O)Nc1cccc2c1cc(C)n2-c1nc2c(c(NCc3ccccc3)n1)CCCC2" with K-562 leukemia - TGI?
## Output 3.45

## Input Please provide the recorded TGI for "NS(=O)(=O)c1ccc(NC(=O)Cc2nc3ccccc3s2)cc1" , tested on K-562 leukemia.
## Output 59.4

----------
Tested on: HCT-15 colon
experimentalProtocol: NCI tumour cell line growth inhibition, 48 h; in the data active = GI50 below about 0.43 µM; inactive = the rest
Use one of these outcomes when replying: Yes for active, No for inactive

O=C(COc1cccc(/C=C2\CSc3ccc(Cl)cc3C2=O)c1)c1ccc(Cl)cc1 : No
COc1ccc(/C=C2\COc3ccc(O)c(O)c3C2=O)c(OC)c1OC : No
COc1cccc(-c2cc(=O)c3cc(N4CCOCC4)ccc3[nH]2)c1 : Yes

## Input Please state the recorded outcome for this molecule: O=[N+]([O-])c1ccc(C(Cl)C(Cl)c2ccc(C(Cl)C(Cl)c3ccc([N+](=O)[O-])cc3[N+](=O)[O-])cc2)c([N+](=O)[O-])c1 (stereo not given)
## Output Yes

## Input Returns: the outcome recorded for "COC(=O)c1cc2oc(/C=C3/SC(=S)N(N)C3=O)cc2n1Cc1ccccc1" in this assay.
## Output No

## Input Which outcome did this test record for the molecule "C#Cc1cccc(Nc2ncnc3ccc(OCCCCNCCS(C)(=O)=O)cc23)c1" ?
## Output No

## Input Could you please tell me the result logged for C=C1C(=O)O[C@H]2[C@H](OC(C)=O)[C@@H](C)CCCC3(C)OC3CCC3(CO3)[C@H](O)C[C@@H]12 (stereo not given in full) in this assay?
## Output No

## Input State the result this test recorded for "O=c1c2ccccc2c(/C=N\NC2=NCCN2)c2oc3ccccc3n12" .
## Output No

## Input # fetch the recorded call for "O=C1C(=C([O-])c2ccccc2)C(=O)c2ccccc21.O=C1C(=C([O-])c2ccccc2)C(=O)c2ccccc21.[Mn+2]" here
## Output No

## Input Assay outcome for "Oc1c(Cl)cc(Cl)cc1/C=N/Nc1nnc(N/N=C/c2cc(Cl)cc(Cl)c2O)c2ccccc12" : what was it?
## Output Yes

----------
System: HOP-62 NSCLC
experimentalProtocol: NCI tumour cell line growth inhibition, 48 h
propertyMeasured: GI50

Take a look at these entries with their results.
CN(C)CCCSc1ccccc1NC1=C(Cl)C(=O)C(Nc2ccccc2SCCCN(C)C)=C(Cl)C1=O : 3590 nM
COc1ccc(NC2=C(I)C(=O)c3ncccc3C2=O)cc1 : 457 nM
O=C(c1ccc(C(F)(F)F)c(Cl)c1)N(Cc1ccc(Cl)cc1)c1ccc(-c2cc(C(F)(F)F)[nH]n2)c(O)c1 : 1020 nM

Let us move to another entry and its GI50.
## Input Give the reported GI50 for "CN(C)CC(=O)Nc1ccc2ncnc(Nc3ccc(Oc4cccc(C(F)(F)F)c4)c(Cl)c3)c2c1" (system: HOP-62 NSCLC).
## Output 2090 nM

----------
Listed below: TGI values for each entry.
Tested on: SNB-19 CNS
experimentalProtocol: NCI tumour cell line growth inhibition, 48 h

The examples below pair each entry with its known result.
CC(C)[C@@](O)(c1ccc2cc(OC(F)F)c(OC(F)F)cc2c1)c1cn[nH]n1 : 51.2 µM
CC1=C(C)C(=O)O[C@@H]([C@](C)(O)[C@]2(O)CC[C@@]3(O)[C@@H]4C[C@H](O)[C@]5(O)[C@@H](O)C=CC(=O)[C@]5(C)[C@H]4CC[C@]23C)C1 : > 100 µM
NS(=O)(=O)c1ccc(NC(=O)Cc2nc3ccccc3s2)cc1 : 49.5 µM

## Input # query: TGI | item "NS(=O)(=O)c1ccc(Nc2c3ccccc3nc3c(C(=O)N4CCN(CCO)CC4)cccc23)cc1" | system: SNB-19 CNS
## Output > 100 µM

## Input # returns recorded TGI (system: SNB-19 CNS) for O=C(NCCC1CN(C(=O)OCc2ccccc2)c2ccccc21)OCc1ccccc1 (stereo not given)
## Output > 100 µM

## Input Hello, I am looking for reported TGI with SNB-19 CNS for "Nc1ccc(O)c2c1C(=O)c1c(N)ccc(O)c1C2=O" . Could you help?
## Output > 100 µM

----------
TGI listing for selected compounds.
Tested on: RXF-631 renal
experimentalProtocol: NCI tumour cell line growth inhibition, 48 h

Record excerpt, results attached:
CCOc1ccc(/C=C/c2cc(OC)c(OC)c(OC)c2)cc1 : > 38 µM
COc1ccc(C(=O)c2c3cc(OC)c(OC)c(OC)c3cc[n+]2C)cc1 : > 100 µM
CCOC(=O)C1=C(C)NC2=C(C(=O)N(c3ccccc3)C2c2ccccc2)C1c1ccccc1 (stereo not drawn) : 32.9 µM
CC(C)(C)C(=O)Nc1cccc2oc(-c3ccccc3)cc12 : > 100 µM
CN(C)CCC(CCN(C)C)=NO : > 100 µM

## Input Field request: TGI | item: "Cc1ccc(S(=O)(=O)N2CCN(C=S)CC2)cc1"
## Output > 100 µM

## Input What measured TGI goes with "CN/C=C(\C(=O)c1ccc(OC)c(OC)c1)c1ccc(OC)cc1" ?
## Output 32.5 µM

## Input Dear colleague, I am looking for the recorded TGI of the following compound: "NS(=O)(=O)c1ccc(NC(=O)Cc2nc3ccccc3s2)cc1"
## Output 30.3 µM

----------
Reported TGI is given for each of the following molecules.
Tested on: LOX IMVI melanoma
experimentalProtocol: NCI tumour cell line growth inhibition, 48 h
Write it as a number; the unit µM goes unstated.

Answered examples (2):
COc1ccc2nc3c([N+](=O)[O-])ccc4c3c(c2c1)NCCN4CCN(C)C : 1.45
CCOC(=O)C1=C(C)NC2=C(C(=O)N(c3ccccc3)C2c2ccccc2)C1c1ccccc1 (stereo unspecified) : 34.4

// switching to the query molecule
## Input Could you share what TGI was measured for "CN/C=C(\C(=O)c1ccc(OC)c(OC)c1)c1ccc(OC)cc1" , tested on LOX IMVI melanoma?
## Output 29.8

----------
System: OVCAR-8 ovarian
experimentalProtocol: NCI tumour cell line growth inhibition, 48 h
propertyMeasured: TGI

Recorded results for 5 compounds are shown here.
NC1CCCCC1N.O=C1C=C/C(=C(/c2ccc(O)c(Br)c2)c2ccccc2S(=O)(=O)[O-])C=C1Br.O=C1C=C/C(=C(/c2ccc(O)c(Br)c2)c2ccccc2S(=O)(=O)[O-])C=C1Br.[Pt+4] : > 100 µM
O=[N+]([O-])c1ccc(N/N=C2/CC3=C2CCCCCCCCCC3)c([N+](=O)[O-])c1 : > 100 µM
NS(=O)(=O)c1ccc(Nc2c3ccccc3nc3c(C(=O)N4CCN(CCO)CC4)cccc23)cc1 : > 100 µM
COC(=O)c1ncc2c(=O)[nH]c3ccccc3c2c1C(=O)OC : > 100 µM
CCOC(=O)Cn1c2ccc(Br)cc2c2nc3ccccc3nc21 : > 100 µM

## Input Returns the measured TGI for the input compound. Input: "CN(C)C=Nc1c2ccccc2nc2ccccc12"
## Output 18.3 µM

## Input Data request, read-out TGI, for "CC1(C)N=C(N)N=C(N)N1c1ccc(OCCCNC(=O)Nc2cccc(S(=O)(=O)F)c2)c(Cl)c1"
## Output > 100 µM

## Input May I ask what TGI has been recorded for CCN(CC)CC(C)C(=O)/C=C/c1ccc(C)cc1 (centres undefined) ?
## Output 11.3 µM

## Input Form field: reported TGI of "O=Nc1c(-c2c(O)[nH]c3cc(Br)ccc23)[nH]c2ccccc12"
## Output > 100 µM

----------
Test system: NCI/ADR-RES ovarian
experimentalProtocol: NCI tumour cell line growth inhibition, 48 h; in the data active means GI50 below about 0.43 µM; inactive means the rest
Could you please pick one outcome from this set? yes (1) (active), no (0) (inactive)

## Input What classification did N#CC1=C(N)NC(=S)NC12Nc1ccccc1S2 (stereo not given) end up with in this test?
## Output no (0)

## Input Name the outcome recorded for "COC(=O)c1cc2oc(/C=C3/SC(=S)N(N)C3=O)cc2n1Cc1ccccc1" in the assay.
## Output no (0)

## Input For "O=c1c2ccccc2c(/C=N\NC2=NCCN2)c2oc3ccccc3n12" , what call appears in the results of this test?
## Output no (0)

## Input Record request — test call for "N#Cc1c(NC(=O)c2ccc(F)cc2)sc2c1CCCC2"
## Output no (0)

## Input # fetch the recorded call for "O=c1cnnc(N/N=C/c2ccccc2O)[nH]1" here
## Output no (0)

## Input # fetch the recorded call for O=C1CC(c2ccccc2)Cc2nc3ccc(Br)cc3cc21 (stereo not given) here
## Output yes (1)

## Input I'd appreciate the recorded outcome for "COc1ccc(C(=NN=C(N)N)c2ccc(OC)cc2)cc1" from this test.
## Output no (0)

## Input Record lookup: outcome of this test for "CC(C)(C)c1cc(/C=N/NC(=O)c2ccccc2NC(=O)c2cccs2)c(O)c(C(C)(C)C)c1" ?
## Output no (0)

## Input Tell me the recorded outcome of this test for "O=C(C=P(c1ccccc1)(c1ccccc1)c1ccccc1)CCl" .
## Output no (0)

## Input Which outcome did this test record for the compound "CC[C@@]1(O)C(=O)OCc2c1cc1n(c2=O)Cc2cc3ccccc3nc2-1" ?
## Output yes (1)

## Input # lookup: test call for "CC(=O)CC/C=C(\C)[C@H](O)[C@H](C)C(=O)O[C@H]1C[C@H](C)C=C2C=C[C@@]3(C)O[C@@H](O)CC(=O)[C@]3(C)[C@H]21"
## Output no (0)

## Input In this assay, the call recorded for "Cc1ccc(C=C2C(Cl)=C(Cl)C(Cl)=C2Cl)cc1" was what?
## Output yes (1)

## Input Field: outcome | Entry: "CC1(C)N=C(N)N=C(N)N1c1ccc(OCCCNC(=O)Nc2cccc(S(=O)(=O)F)c2)c(Cl)c1"
## Output no (0)

## Input Per the records of this test, what outcome belongs to "Cc1cnc2oc3ccc(O)cc3c2c1-c1ccccc1" ?
## Output no (0)

## Input Which outcome did this test record for the compound "N#CC(C#N)=C1CCOc2ccc(F)cc21" ?
## Output no (0)

## Input Can you look up the reported call for "Oc1c(Cl)cc(Cl)cc1/C=N/Nc1nnc(N/N=C/c2cc(Cl)cc(Cl)c2O)c2ccccc12" for me?
## Output yes (1)

## Input Hi, sorry to bother you, what did the test record for "C=CC(=O)N1C[C@@H]2CCOc3c(Cl)c(-c4c(O)cccc4F)c(F)c4ncnc(c34)N2C[C@H]1C" ?
## Output no (0)

## Input Record lookup: outcome of this test for "CCN(CC)CC[n+]1ccc2c(C)c3[nH]c4ccc(O)cc4c3c(C)c2c1" ?
## Output no (0)

## Input How did this test come out for "Cc1ccc2cccc(OC(=O)Nc3cccc(C(F)(F)F)c3)c2n1" ?
## Output no (0)

## Input Lab log entry: "COC(=O)[C@]12CC[C@@H](C)[C@H](C)[C@@H]1C1=CC[C@@H]3[C@@]4(C)C[C@@H](OC(=O)/C=C/c5ccccc5)[C@H](O)[C@@](C)(CO)[C@@H]4[C@H](O)C[C@@]3(C)[C@]1(C)CC2" — outcome as called in the assay?
## Output no (0)
